- Tested on: SF-268 CNS
- Test Summary: NCI-60 one-dose screen, 48 h (100 = growth as untreated, 0 = no growth, -100 = all killed)
- Assay Context: 10 µM unless noted
About 83,000 compounds went through this panel and 20% of them were active in at least one assay; those are over-represented in the sample as a whole.
Readout: growth (%)
One number for each entry, in %.

// known answers, use as guide
- CCN(CC)CCCN1C(=O)c2c(c(C)c3c(oc4cc(O)ccc43)c2C)C1=O: -41.4
- CN1CCN(c2ccc(NC(=O)c3nc4ccc5[nH]ncc5c4c4c3CCCC4)cc2C(F)(F)F)CC1: 78
- Cc1cc2c(O)c(-c3cccc(Cl)c3)c3sc(=O)oc3c2cc1C: 48.7

State recorded growth for all listed molecules.
1. CCOC(=O)c1cc(C(=O)c2cc(OC)c(OC)c(OC)c2)n2ccc(-c3ccncc3)cc12
2. CN(CCOc1ccc(C#N)cc1)CCOc1ccc(C#N)cc1

**Result**
1. 96.4
2. 103

----------
- Test system: HOP-92 NSCLC
- Test Summary: NCI-60 one-dose screen, 48 h
- Assay Context: 10 µM unless noted
The panel holds about 83,000 compounds, 20% with a hit somewhere; the sample as a whole holds those more often. Activity calls are given as the source filed them. The calls were made as follows: active = growth percent below 10; inactive = the rest.
Pick one and only one: active, inactive

• COc1ccc(NC(=O)c2sc3nc(C)c(C(=O)/C=C/c4cccc(OC)c4)cc3c2N)cc1 = inactive
• COc1cc(OC)c2sc(-c3ccc(-n4cncc4-c4ccc(OC)c(OC)c4)cc3)nc2c1 = inactive
• COC(=O)CNC(=O)[C@H](Cc1ccccc1)NCc1ccncc1 = inactive
• COc1ccc(OC)c(C(=O)/C=C/c2cc3c(c(OC)c2OC)OCO3)c1 = inactive
• O=C(/C=C/c1cccs1)c1ccc(Cl)nc1 = inactive
• COc1cccc([C@H]2c3[nH]c4ccccc4c3C[C@H]3C(=O)N(CCCCCCC(=O)NO)CC(=O)N23)c1 = active
• CC(=O)Nc1nc2ccc(NS(=O)(=O)c3cccc4c(N(C)C)cccc34)cc2[nH]1 = inactive
• Nc1c(C(=O)Nc2ccccc2Cl)sc2nc3c(cc12)C(O)CCC3 (stereo not given) = inactive

**Query** Check the results log: what was the call for `COC(=O)c1cc(-c2ccc(S(C)(=O)=O)cc2)[nH]c1N/N=C/c1c(Cl)cccc1Cl` ?
**Result** inactive

**Query** Recorded test call requested for `CCCCCCCCn1ccc2cc(NC(=O)Cn3cc(CN4CCCCC4)nn3)ccc21`
**Result** inactive

**Query** Could you check what this test reported for `C#COc1cccc(Nc2ncnc3ncc(NC(=O)CCl)cc23)c1` ?
**Result** inactive

**Query** Record request — test call for `CS(=O)(=O)C1=CN(CCO)C(=O)N2CCCN=C12`
**Result** inactive

**Query** I would be grateful if you could indicate the recorded call for `CN1CCN(C(=O)c2ccc(NC(=O)Nc3ccc(-c4nc(N5CCOCC5)c5cccn5n4)cc3)cc2)CC1` .
**Result** active

**Query** Recorded test outcome, item `Cn1ccnc1C(=O)C(=O)Nc1ccc(CC(=O)Nc2ccccc2)cc1`
**Result** inactive

**Query** Tell me the recorded outcome of this test for `COC(=O)c1ccc2c(c1)C(=O)c1c-2n(CCCN)c(=O)c2cc([N+](=O)[O-])ccc12` .
**Result** active

**Query** Would you mind telling me which call this test gave `Cn1cc(-c2csc(-c3ccc(Cl)cc3)n2)c2cccnc21` ?
**Result** active

**Query** Identify the outcome logged in this assay for the compound shown: `C=C(C)[C@@H]1CC[C@]2(C(=O)N3CCN(C)CC3)CC[C@]3(C)[C@H](CC[C@@H]4[C@@]5(C)CC(=C/c6ccncc6)/C(=N/O)C(C)(C)[C@@H]5CC[C@]43C)[C@@H]12`
**Result** inactive

**Query** Lab log entry: `Nc1c(C(=O)Nc2ccncc2)sc2nc3c(cc12)CCCCCC3` — outcome as called in the assay?
**Result** inactive

**Query** GET /call?item= COc1ccc(C(=O)C2C(c3ccc(OC)cc3)CN(C)C23C(=O)Nc2ccccc23)cc1 (stereo not given) returns the recorded outcome of this test.
**Result** inactive

**Query** What classification did `CCCCCOc1ccc(C(=O)/C(Br)=C/C(=O)O)cc1` end up with in this test?
**Result** inactive
